Source: patent US11117907B2

Tested on: LNCap
Assay: In vitro cell viability bioassay, MTT, LNCap
Type: cell-based
Details: Homo sapiens, MTT assay, read-out: Prostate Cancer IC50 (μM) LNCap
Parameter measured: IC50 (µM)

A = COc1cc(/C=C/C(=O)CC(=O)/C=C/c2ccc(O)c(OC)c2)ccc1O
B = O=C(/C=C/c1ccc(F)cc1)C(F)(F)C(=O)/C=C/c1ccc(F)cc1
Which numeric IC50 is bigger, that of A or that of B ? Answer by stating the label of the chosen item. B
(B: 29.2 µM, A: 9.7 µM)
